The reported measurements were obtained from PubChem BioAssay AID1159580.

I'd be grateful if you could share measured normalized growth for these entries.
test: chemical genetic growth profiling, strain panel (AID 1159580);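 also: tested at 20 µM; growth read once vehicle control cultures reached saturation at 30 °C; 1 = growth at the plate median or of vehicle wells; lower values mean less growth of the strain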; details: S. cerevisiae deletion strains, growth OD, locus YEL061C, strain CIN8, stronger effect = lower value
Among all 5,500 compounds or so, about 2,000 (36%) were called active. About 18% were inconclusive and are not listed. Some of the results follow.
API note: the answer field is a bare number with no unit suffix.

In: Requested field: normalized growth. Item: Nc1nccs1
Out: 0.984

In: # repeat for CC(C)c1nc2ccccc2[nH]1
Out: 1.01

In: # repeat for CCOC(N)=O
Out: 1

In: # repeat for C/C=C/c1ccc(OC)cc1
Out: 1.01

----------
test: chemical genetic growth profiling, strain panel (AID 1159580);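 also: tested at 20 µM; growth read once vehicle control cultures reached saturation at 30 °C; 1 = growth at the plate median or of vehicle wells; lower values mean less growth of the strain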; conditions: S. cerevisiae deletion strains, growth OD, locus YPL051W, strain arl3
In all, about 5,500 compounds went through this assay and about 2,000 (36%) were called active. Inconclusive results (about 18%) are left out. Cut-off read from the data, not from the text of the source: active = normalized growth mostly below about 0.91 (no sharp cut-off); inconclusive = no clear call, values can overlap the other calls; inactive = mostly above about 0.92. Some of the results follow.
Could you please pick one outcome from this set? Yes = active, No = inactive

In: Name the outcome recorded for O=C(O)c1cc(=O)c(O)c2c(O)c(O)ccc2c1 in the assay.
Out: No

In: # repeat for CCn1cc(C(=O)O)c(=O)c2cc3c(cc21)OCO3
Out: No

In: # repeat for O=C(NC(Cc1cc(=O)[nH]c2ccccc12)C(=O)O)c1ccc(Cl)cc1 (stereo unspecified)
Out: No

In: # repeat for CCn1cc(C(=O)O)c(=O)c2ccc(C)nc21
Out: Yes

In: # repeat for CCn1cc(C(=O)O)c(=O)c2cnc(N3CCCC3)nc21
Out: No

In: # repeat for N[C@@H](CCC(=O)N[C@@H](CCSC(CC(=O)O)C(=O)O)C(=O)NCC(=O)O)C(=O)O (stereo partly specified)
Out: No

----------
I'd be grateful if you could share measured normalized growth for these entries.
assay: chemical genetic growth profiling, strain panel (AID 1159580);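 also: tested at 20 µM; growth read once vehicle control cultures reached saturation at 30 °C; 1 = growth at the plate median or of vehicle wells; lower values mean less growth of the strain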; details: S. cerevisiae deletion strains, growth OD, locus YLR113W, strain HOG1, stronger effect = lower value
Out of some 5,500 compounds screened, about 2,000 (36%) were called active. About 18% were inconclusive and are not listed. The list shows a part of the results.

In: Requested field: normalized growth. Item: CC12CC[C@@H](O)CC1=CC[C@@H]1C2CCC2(C)C(=O)CC[C@@H]12 (stereo partly drawn)
Out: 0.996 (inactive)

In: # repeat for CN(C)CCCO[C@H]1[C@@H](C(O)CO)OC2OC(C)(C)O[C@@H]21 (stereo partly drawn)
Out: 0.985 (inactive)

In: # repeat for CC12CCC(CC1)C(C)(C)O2
Out: 0.994 (inactive)

In: # repeat for CC12CCCC(O)(C1)C1CC(C)(C)C1CC2 (stereo not drawn)
Out: 0.939 (inactive)

In: # repeat for CCCNC(C)C(=O)Nc1ccccc1C (stereo not drawn)
Out: 1.09 (inactive)

In: # repeat for Nc1c(Br)cc(Br)cc1CNC1CCC(O)CC1 (stereo not drawn)
Out: 1.07 (inactive)

In: # repeat for C[C@@]12C(=O)OC(=O)[C@]1(C)C1CCC2O1
Out: 0.182 (active)

In: # repeat for CC(C)C1=CC2=CCC3[C@](C)(CCC[C@]3(C)C(=O)O)C2CC1 (stereo partly drawn)
Out: 0.859 (inactive)

In: # repeat for Nc1cc(-c2ccc(OC(F)(F)F)cc2)nn1-c1ccc(Cl)c(Cl)c1
Out: 0.317 (active)

In: # repeat for COc1ccc(C[C@H](N)C(=O)N[C@@H]2[C@@H](CO)OC(n3cnc4c(N(C)C)ncnc43)[C@@H]2O)cc1 (stereo partly drawn)
Out: 0.989 (inactive)

In: # repeat for Nc1ccc(S(=O)(=O)Nc2nccs2)cc1
Out: 1.02 (inactive)

In: # repeat for CC1=CC(=O)CC(C)(C)C1(O)/C=C/C(C)=C\C(=O)O (stereo not drawn)
Out: 1.07 (inactive)

In: # repeat for CC1(C)CC2C1CCC1(C)OC2(C)CCC1O (stereo not drawn)
Out: 1.03 (inactive)

In: # repeat for CC(=O)O[C@H]1CC[C@@]2(C)C(=CCC3C2CC[C@@]2(C)C3CC[C@@H]2C(C)CCCC(C)C)C1 (stereo partly drawn)
Out: 0.95 (inactive)

In: # repeat for CCCc1cc(OC)c2c(c1)OCO2
Out: 1.04 (inactive)

In: # repeat for CCc1cc2c(cc1-c1csc(C/C(N)=N\O)n1)C(C)(C)CCC2(C)C
Out: 0.369 (active)

In: # repeat for CCn1cc(C(=O)O)c(=O)c2cnc(N3CCCC3)nc21
Out: 0.986 (inactive)

In: # repeat for CCn1cc(C(=O)O)c(=O)c2cc3c(cc21)OCO3
Out: 1.07 (inactive)
